molecular target: p38a/PRAK (Homo sapiens (Human)); assay: p38a/PRAK biochemical assay: activation of PRAK by p38, FITC-HSP27 peptide phosphorylation (IMAP FP); details: 10-point 1:3 dilution, top dose 300 μM; 60 pM active p38a, 1 nM inactive PRAK, 10 μM ATP, 2 h incubation; read-out: p38a/PRAK Enzyme pIC50 (converted)
quantity: IC50

Solved entries:
Cc1cnc(-n2ccc(C(=O)NC3CC3)n2)cc1-n1c(C)cc(OCc2ncc(F)cc2F)c(Cl)c1=O (single isomer, unassigned) [Example 44B] :: > 316 µM
Cc1cnc(-c2ccnc(C(C)(C)CO)n2)cc1-n1c(C)cc(OCc2ncc(F)cc2F)c(Cl)c1=O (single isomer, unassigned) [Example 4B] :: > 316 µM

Now examine the next entry.
What the record says about Cc1cnc(-c2ccnc(CC3(O)CC3)n2)cc1-n1c(C)cc(OCc2ncc(F)cc2F)c(Cl)c1=O (single isomer, unassigned) [Example 48B] : IC50 is > 316 µM

---

Target: p38a/MK2 (Homo sapiens (Human), UniProt P49137+Q16539)
Sequence (P49137 46-400): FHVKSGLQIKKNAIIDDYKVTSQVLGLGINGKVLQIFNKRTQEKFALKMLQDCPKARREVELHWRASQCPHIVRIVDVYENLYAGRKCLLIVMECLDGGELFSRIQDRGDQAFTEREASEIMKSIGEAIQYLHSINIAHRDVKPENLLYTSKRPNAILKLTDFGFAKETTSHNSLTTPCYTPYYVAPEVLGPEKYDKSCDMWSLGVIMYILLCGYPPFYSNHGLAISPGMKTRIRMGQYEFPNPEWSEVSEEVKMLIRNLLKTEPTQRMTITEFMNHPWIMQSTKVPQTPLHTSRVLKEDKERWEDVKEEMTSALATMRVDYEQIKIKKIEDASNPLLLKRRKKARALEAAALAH
Sequence (Q16539 whole entry): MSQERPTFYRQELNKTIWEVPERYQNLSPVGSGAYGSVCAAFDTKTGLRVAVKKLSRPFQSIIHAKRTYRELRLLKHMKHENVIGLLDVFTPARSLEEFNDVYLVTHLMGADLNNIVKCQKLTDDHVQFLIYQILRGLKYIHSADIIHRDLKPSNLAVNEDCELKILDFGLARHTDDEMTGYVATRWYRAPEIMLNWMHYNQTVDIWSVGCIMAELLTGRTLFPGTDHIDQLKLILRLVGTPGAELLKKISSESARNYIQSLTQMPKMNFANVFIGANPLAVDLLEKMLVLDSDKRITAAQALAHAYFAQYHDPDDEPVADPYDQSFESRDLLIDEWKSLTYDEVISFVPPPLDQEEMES
Assay: p38a/MK2 biochemical assay: activation of MK2 by p38, FITC-HSP27 peptide phosphorylation (IMAP FP)
Conditions: 10-point 1:3 dilution, top dose 1 μM; 60 pM active p38a, 1 nM inactive MK2, 10 μM ATP, 2 h incubation; read-out: p38a/MK2 (1 μM) Enzyme pIC50 (converted)
Excerpt: Expression vectors of the recombinant MK2 and PRAK kinases were constructed by cloning of the codon optimized gene sequences of MK2 (Uniprot ID P49137, amino acid fragment F46-H400), or PRAK (Uniprot ID Q81W41, amino acid fragment M1-Q471) into pGEX-4T1 (GE) for over expression of these kinases with N-terminal GST-tag. […]
Measured IC50, listed per entry for reference.

Solved entries:
Cc1cnc(-n2ccc(CC(C)(C)O)n2)cc1-n1c(C)cc(OCc2ncc(F)cc2F)c(Cl)c1=O (single isomer, unassigned) [Example 46B] :: > 1000 nM
Cc1cnc(-c2ccnc(C(C)(C)O)n2)c(F)c1-n1c(C)cc(OCc2ncc(F)cc2F)c(Cl)c1=O (single isomer, unassigned) [Example 53A] :: > 1000 nM
Cc1ncc(-c2ccnc(C(C)(C)O)n2)cc1-n1c(C)cc(OCc2ncc(F)cc2F)c(Cl)c1=O (single isomer, unassigned) [Example 45A] :: > 1000 nM

What the record says about [2H]C([2H])([2H])C(O)(c1nccc(-c2ncc(C)c(-n3c(C)cc(OCc4ncc(F)cc4F)c(Cl)c3=O)c2F)n1)C([2H])([2H])[2H] (single isomer, unassigned) [Example 66A] : IC50 is > 100 nM

What the record says about Cc1cnc(-n2ccc(C(C)(C)O)n2)c(C)c1-n1c(C)cc(OCc2ncc(F)cc2F)c(Cl)c1=O (single isomer, unassigned) [Example 50B] : IC50 is > 1000 nM

What the record says about [2H]C([2H])(Oc1cc(C)n(-c2c(C)cnc(-c3ccnc(C(C)(C)CO)n3)c2F)c(=O)c1Cl)c1ncc(F)cc1F (single isomer, unassigned) [Example 59A] : IC50 is > 1000 nM
